Test system: Beclin 1/Bcl binding
Assay: Beclin 1/Bcl binding by immunoprecipitation with anti-Beclin 1 antibodies and Western blotting
Type: cell-based
Conditions: Table 1
ENDPOINT: Inhibit Beclin 1 Binding

Here are 4 compounds together with their reported answers.
>>> val("Nc1nc(S)c2ncn(C3CC(O)C(COP(=O)(O)O)O3)c2n1 (stereo not shown) [NSC94668]")
"No"
>>> val("O=C(C[N+]12CN3CN(CN(C3)C1)C2)c1ccc2ccccc2c1.[Br-] [NSC36400]")
"No"
>>> val("CC(=O)C1=C(O)C2(C)c3c(O)c(C)c(O)c(C(C)=O)c3OC2CC1=O (stereo not shown) [NSC280057]")
"No"
>>> val("CCCCC(CC)CN1CN(CC(CC)CCCC)CC(C)(N)C1 (stereo not shown) [NSC17764]")
"No"

// query Inhibit Beclin 1 Binding lookup needed for CC1CC(C)(C)NCCNC(C)CC(C)(C)NCCN1 (stereo not shown) [NSC175445] , thanks.
// result Yes

// query Inhibit Beclin 1 Binding lookup needed for CN(C)CCCN1CC2CCCCC2C1 (stereo not shown) [NSC43537] , thanks.
// result Yes

----------
System: protein degradation
Experiment: Protein degradation by pulse-chase methods using 14C-valine
Type: cell-based
Conditions: Table 1
ENDPOINT: Stimulate Protein Degradation

Here are 7 molecules together with their reported answers.
>>> val("CN(C)CCNNC1CCCN(C)C1 (centres unmarked) [NSC21689]")
"Yes"
>>> val("Nc1nc(S)c2ncn(C3CC(O)C(COP(=O)(O)O)O3)c2n1 (centres unmarked) [NSC94668]")
"Yes"
>>> val("CN1CCN(CCSC2Cc3cc(Cl)ccc3Sc3ccccc32)CC1 (centres unmarked) [NSC635366]")
"No"
>>> val("C1CC2NCCC3NCCC(N1)N32 (centres unmarked) [NSC81462, Dodecahydro-1,4,7,9b-tetraazaphenalene]")
"Yes"
>>> val("O=C(c1ccc(Cl)cc1)C(C(c1ccc([N+](=O)[O-])cc1)N1CCCCC1)N1CCCCC1 (centres unmarked) [NSC150193]")
"Yes"
>>> val("O=C1/C(=N\\Nc2cc(Cl)ccc2O)C(S(=O)(=O)O)=Cc2cc(S(=O)(=O)O)cc(O)c21 [NSC100234]")
"Yes"
>>> val("CCCCC(CC)CN1CN(CC(CC)CCCC)CC(C)(N)C1 (centres unmarked) [NSC17764]")
"No"

Switching to the query record.
// query For protein degradation, provide Stimulate Protein Degradation of CN(C)CCCN1CC2CCCCC2C1 (centres unmarked) [NSC43537] please.
// result Yes

----------
Test system: Beclin 1/Bcl binding
Test: Beclin 1/Bcl binding by immunoprecipitation with anti-Beclin 1 antibodies and Western blotting
Type: cell-based
Details: Table 1
ENDPOINT: Inhibit Beclin 1 Binding

Here are 6 molecules together with their reported answers.
>>> val("CN(C)CCNNC1CCCN(C)C1 (stereo not shown)")
"No"
>>> val("Clc1cc(Cl)c(C[N+]23CN4CN(CN(C4)C2)C3)cc1Cl.[Cl-]")
"No"
>>> val("OC(CCl)CN1CC[N+]2(CC1)CC[N+]1(CCN(CC(O)CCl)CC1)CC2.[Cl-].[Cl-] (stereo not shown)")
"No"
>>> val("O=C1/C(=N\\Nc2cc(Cl)ccc2O)C(S(=O)(=O)O)=Cc2cc(S(=O)(=O)O)cc(O)c21")
"Yes"
>>> val("C1CC2NCCC3NCCC(N1)N32 (stereo not shown) [NSC81462, Dodecahydro-1,4,7,9b-tetraazaphenalene]")
"Yes"
>>> val("O=C(c1ccc(Cl)cc1)C(C(c1ccc([N+](=O)[O-])cc1)N1CCCCC1)N1CCCCC1 (stereo not shown)")
"Yes"

Switching to the query record.
// query For Beclin 1/Bcl binding, provide Inhibit Beclin 1 Binding of Nc1c(/N=N/c2ccc(S(=O)(=O)Nc3cnccn3)cc2)cc(S(=O)(=O)O)c2ccccc12 please.
// result Yes
